Reported -log Kd value by item:
target: HLA-A*02:06 molecule; assay: flow cytometry, RA2.6 cells

>  <binder>
MLPQTPSHL [peptide of SEQ ID NO: 24]

>  <-log Kd value>
-3.96

$$$$
>  <binder>
ASPSHMTSM [peptide of SEQ ID NO: 81]

>  <-log Kd value>
> -3

$$$$
>  <binder>
LMEEHGATL [peptide of SEQ ID NO: 13]

>  <-log Kd value>
-5.68

$$$$
>  <binder>
ARHSTIPLV [peptide of SEQ ID NO: 77]

>  <-log Kd value>
> -3

$$$$
>  <binder>
ISAYRTCWI [peptide of SEQ ID NO: 34]

>  <-log Kd value>
-3.14

$$$$
>  <binder>
LVEEHGATL [peptide of SEQ ID NO: 43]

>  <-log Kd value>
-4.86

$$$$
>  <binder>
THLDAGTVE [peptide of SEQ ID NO: 75]

>  <-log Kd value>
> -3

$$$$
>  <binder>
VMQIDGVQP [peptide of SEQ ID NO: 67]

>  <-log Kd value>
-3.41

$$$$
>  <binder>
YVYDPPTTI [peptide of SEQ ID NO: 2]

>  <-log Kd value>
-5.55

$$$$
>  <binder>
GTHLDAGTV [peptide of SEQ ID NO: 51]

>  <-log Kd value>
-3.66

$$$$
>  <binder>
SPDEFSNDF [peptide of SEQ ID NO: 73]

>  <-log Kd value>
> -3

$$$$
>  <binder>
ILSDHQQSQ [peptide of SEQ ID NO: 70]

>  <-log Kd value>
> -3

$$$$
>  <binder>
GYITLGKPH [peptide of SEQ ID NO: 80]

>  <-log Kd value>
> -3

$$$$
>  <binder>
LTEEHGATL [peptide of SEQ ID NO: 42]

>  <-log Kd value>
-4.92

$$$$
>  <binder>
KFLEAFHEV [peptide of SEQ ID NO: 8]

>  <-log Kd value>
-5.81

$$$$
>  <binder>
LPPARHSTI [peptide of SEQ ID NO: 76]

>  <-log Kd value>
> -3

$$$$
>  <binder>
IFADVSSST [peptide of SEQ ID NO: 78]

>  <-log Kd value>
> -3

$$$$
>  <binder>
STGESAQTS [peptide of SEQ ID NO: 71]

>  <-log Kd value>
> -3

$$$$
>  <binder>
ETLQFIDSM [peptide of SEQ ID NO: 53]

>  <-log Kd value>
-3.37

$$$$
>  <binder>
FSNDFGQSL [peptide of SEQ ID NO: 35]

>  <-log Kd value>
-4.71

$$$$
>  <binder>
CTDEHQWQL [peptide of SEQ ID NO: 39]

>  <-log Kd value>
-6.8

$$$$
>  <binder>
LIEEHGATL [peptide of SEQ ID NO: 40]

>  <-log Kd value>
-4.81

$$$$
>  <binder>
YLYDPPTTI [peptide of SEQ ID NO: 4]

>  <-log Kd value>
-5.87

$$$$

Just for reference, patent US20250236642A1 is where these values come from.
